- System: Human gastric cancer cell MKN45
- assay: CCK-8 cell proliferation assay, MKN-45
- Type: cell-based
- protocol_conditions: MKN-45 cells, CCK-8, 24 hrs with drug, OD 450 nm
experimental_readout: IC50 (nM)
Write it as a number; the unit nM goes unstated.

// solved cases for IC50 follow
In [3]: df
Out[3]:
                                   compound  experimental_readout  obs_value
0  O=C(NCCCCCCC1CCN(C(=O)c2cccs2)C1)Nc1ccncc1 (stereo not drawn)                  IC50         36
1  COc1cccc(OC)c1C(=O)N1CCC(CCCCCNC(=O)Nc2ccnc(F)c2)C1 (stereo not drawn)                  IC50         46

Attention now turns to another entry.
QUERY: Recorded IC50 of O=C(NCCCCCCCC1CCN(C(=O)c2ccccc2)C1)Nc1ccncc1 (stereo not drawn) , please.
RESULT: 47
